Give measured Ki for each item. Keep answers brief.
target_of_assay: recombinant human ALK5 (TGF-βR1) protein (Homo sapiens)
Construct: purchased Life Technologies PR9075A
Sequence (P36897 34-503): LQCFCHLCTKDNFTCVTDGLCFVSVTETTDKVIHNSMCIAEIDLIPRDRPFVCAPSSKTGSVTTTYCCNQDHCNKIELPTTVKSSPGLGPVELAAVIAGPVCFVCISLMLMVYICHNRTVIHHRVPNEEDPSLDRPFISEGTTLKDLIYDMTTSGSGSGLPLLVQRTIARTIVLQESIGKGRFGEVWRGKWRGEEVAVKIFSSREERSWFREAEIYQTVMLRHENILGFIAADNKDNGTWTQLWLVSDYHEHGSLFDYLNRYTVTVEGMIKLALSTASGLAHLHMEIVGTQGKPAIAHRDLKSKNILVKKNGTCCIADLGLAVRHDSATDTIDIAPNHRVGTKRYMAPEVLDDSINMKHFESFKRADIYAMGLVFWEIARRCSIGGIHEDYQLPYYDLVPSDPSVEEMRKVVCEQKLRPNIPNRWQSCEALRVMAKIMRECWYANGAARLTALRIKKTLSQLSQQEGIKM
method_description: Biochemical ALK5 (TGF-βR1) assay to measure pKi (LANCE Ultra ULight kinase assay)
study_conditions: apparent pKi from pIC50 by Cheng-Prusoff, read-out: ALK5 pKi (converted)

get_value(item= CCN1CCC(N(C)c2cnc3ccc(-c4c[nH]nc4-c4cccc(C)n4)nc3c2)CC1 , readout=Ki) returns 0.0398 to 0.316 nM

get_value(item= Cc1cccc(-c2[nH]cnc2-c2ccc3ncc(C(=O)OC[C@H]4CCCNC4)cc3c2)n1 , readout=Ki) returns 0.0398 to 0.316 nM

get_value(item= Cc1cccc(-c2[nH]cnc2-c2ccc3ncc(C4CCC(N)CC4)cc3c2)n1 (centres unmarked) , readout=Ki) returns 0.398 to 3.16 nM

get_value(item= Cc1ccc(S(=O)(=O)NCC(=O)Nc2cnc3ccc(-c4c[nH]nc4-c4cccc(C)n4)nc3c2)cc1 , readout=Ki) returns 0.0398 to 0.316 nM

get_value(item= Cc1cccc(-c2n[nH]cc2-c2ccc3ncc(-c4[nH]nc5c4CNCC5)cc3n2)n1 , readout=Ki) returns 0.0398 to 0.316 nM

get_value(item= Cc1cccc(-c2n[nH]cc2-c2ccc3ncc(-c4cc(C)nn4C)cc3n2)n1 , readout=Ki) returns < 0.0316 nM

get_value(item= Cc1cccc(-c2n[nH]cc2-c2ccc3ncc(-c4cnn5c4CNCC5)cc3n2)n1 , readout=Ki) returns 0.0398 to 0.316 nM

get_value(item= Cc1cccc(-c2[nH]cnc2-c2ccc3ncc(-c4ccc5c(c4)CC(N)C5)cc3c2)n1 (centres unmarked) , readout=Ki) returns 0.0398 to 0.316 nM
